SYSTEM: NR2B receptor (Rattus norvegicus (Rat), UniProt P35439+Q00960)
Sequence (Q00960 27-1482, other chains not shown): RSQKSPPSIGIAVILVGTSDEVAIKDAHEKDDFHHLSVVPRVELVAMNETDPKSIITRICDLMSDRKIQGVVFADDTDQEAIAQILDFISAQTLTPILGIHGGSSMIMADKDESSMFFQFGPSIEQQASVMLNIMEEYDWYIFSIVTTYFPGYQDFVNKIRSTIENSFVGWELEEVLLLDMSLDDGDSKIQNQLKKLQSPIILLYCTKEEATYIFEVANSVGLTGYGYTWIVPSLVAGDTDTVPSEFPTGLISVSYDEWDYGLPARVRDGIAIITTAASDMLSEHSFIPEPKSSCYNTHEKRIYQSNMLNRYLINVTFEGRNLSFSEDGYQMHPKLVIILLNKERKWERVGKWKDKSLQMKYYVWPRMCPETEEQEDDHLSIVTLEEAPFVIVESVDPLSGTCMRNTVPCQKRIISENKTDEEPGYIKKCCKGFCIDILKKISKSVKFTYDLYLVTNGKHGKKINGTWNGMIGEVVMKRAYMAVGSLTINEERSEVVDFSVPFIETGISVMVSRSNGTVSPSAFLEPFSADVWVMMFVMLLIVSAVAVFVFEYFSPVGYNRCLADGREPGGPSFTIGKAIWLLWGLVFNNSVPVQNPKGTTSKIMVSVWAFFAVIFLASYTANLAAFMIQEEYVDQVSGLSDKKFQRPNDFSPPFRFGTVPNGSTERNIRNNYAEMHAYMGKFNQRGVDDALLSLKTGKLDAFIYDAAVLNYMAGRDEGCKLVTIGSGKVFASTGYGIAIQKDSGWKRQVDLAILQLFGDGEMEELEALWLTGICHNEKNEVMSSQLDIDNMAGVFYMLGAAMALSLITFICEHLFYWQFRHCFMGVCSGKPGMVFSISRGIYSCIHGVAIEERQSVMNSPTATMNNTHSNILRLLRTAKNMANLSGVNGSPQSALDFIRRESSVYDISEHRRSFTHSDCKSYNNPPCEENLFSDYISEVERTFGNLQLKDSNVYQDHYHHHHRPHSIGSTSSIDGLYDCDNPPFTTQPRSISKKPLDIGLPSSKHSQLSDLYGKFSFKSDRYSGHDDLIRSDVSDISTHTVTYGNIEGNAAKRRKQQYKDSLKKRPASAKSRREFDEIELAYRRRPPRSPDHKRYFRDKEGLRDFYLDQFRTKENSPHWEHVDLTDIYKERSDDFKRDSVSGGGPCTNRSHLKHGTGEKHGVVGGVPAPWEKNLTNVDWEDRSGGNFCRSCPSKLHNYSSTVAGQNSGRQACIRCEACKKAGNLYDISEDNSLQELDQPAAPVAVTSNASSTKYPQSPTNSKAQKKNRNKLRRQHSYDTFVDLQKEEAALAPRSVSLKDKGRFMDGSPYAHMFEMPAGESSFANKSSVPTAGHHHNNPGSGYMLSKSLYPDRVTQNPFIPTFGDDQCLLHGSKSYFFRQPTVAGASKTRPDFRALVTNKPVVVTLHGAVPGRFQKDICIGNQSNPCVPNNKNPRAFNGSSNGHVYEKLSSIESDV
EXPERIMENT_DESCRIPTION: [3H] (E)-N1-(2-methoxybenzyl)-cinnamidine radioligand binding, rat brain membranes
SETUP_CONDITIONS: read-out: Ki at the NR2B receptor high affinity site

>  <MOLECULE>
O=C(OCc1ccc(F)cc1)N1CC[C@H](CNc2nccn3cnnc23)C(F)(F)C1 [Compound E1-1.4]

>  <Ki>
18.2 nM

$$$$
>  <MOLECULE>
Cc1ccc(COC(=O)N2CC[C@H](CNc3nccn4cnnc34)C(F)(F)C2)cc1 [Compound E1-1.2]

>  <Ki>
5.23 nM

$$$$
>  <MOLECULE>
Cc1ccc(COC(=O)N2CC[C@H](CNc3nc4ccccn4n3)C(F)(F)C2)cc1 [Compound E1-9.2]

>  <Ki>
11.3 nM

$$$$
>  <MOLECULE>
O=C(OCc1ccc(Cl)cc1)N1CC[C@H](CNc2nccn3cnnc23)C(F)(F)C1 [Compound E1-1.3]

>  <Ki>
2.34 nM

$$$$
>  <MOLECULE>
Cc1ccc(COC(=O)N2CC[C@@H](CNc3nccn4cnnc34)C(F)(F)C2)cc1 [Compound E2-1.2]

>  <Ki>
74.3 nM

$$$$

----------
SYSTEM: UniProtKB Q12809
Sequence (Q12809 whole entry): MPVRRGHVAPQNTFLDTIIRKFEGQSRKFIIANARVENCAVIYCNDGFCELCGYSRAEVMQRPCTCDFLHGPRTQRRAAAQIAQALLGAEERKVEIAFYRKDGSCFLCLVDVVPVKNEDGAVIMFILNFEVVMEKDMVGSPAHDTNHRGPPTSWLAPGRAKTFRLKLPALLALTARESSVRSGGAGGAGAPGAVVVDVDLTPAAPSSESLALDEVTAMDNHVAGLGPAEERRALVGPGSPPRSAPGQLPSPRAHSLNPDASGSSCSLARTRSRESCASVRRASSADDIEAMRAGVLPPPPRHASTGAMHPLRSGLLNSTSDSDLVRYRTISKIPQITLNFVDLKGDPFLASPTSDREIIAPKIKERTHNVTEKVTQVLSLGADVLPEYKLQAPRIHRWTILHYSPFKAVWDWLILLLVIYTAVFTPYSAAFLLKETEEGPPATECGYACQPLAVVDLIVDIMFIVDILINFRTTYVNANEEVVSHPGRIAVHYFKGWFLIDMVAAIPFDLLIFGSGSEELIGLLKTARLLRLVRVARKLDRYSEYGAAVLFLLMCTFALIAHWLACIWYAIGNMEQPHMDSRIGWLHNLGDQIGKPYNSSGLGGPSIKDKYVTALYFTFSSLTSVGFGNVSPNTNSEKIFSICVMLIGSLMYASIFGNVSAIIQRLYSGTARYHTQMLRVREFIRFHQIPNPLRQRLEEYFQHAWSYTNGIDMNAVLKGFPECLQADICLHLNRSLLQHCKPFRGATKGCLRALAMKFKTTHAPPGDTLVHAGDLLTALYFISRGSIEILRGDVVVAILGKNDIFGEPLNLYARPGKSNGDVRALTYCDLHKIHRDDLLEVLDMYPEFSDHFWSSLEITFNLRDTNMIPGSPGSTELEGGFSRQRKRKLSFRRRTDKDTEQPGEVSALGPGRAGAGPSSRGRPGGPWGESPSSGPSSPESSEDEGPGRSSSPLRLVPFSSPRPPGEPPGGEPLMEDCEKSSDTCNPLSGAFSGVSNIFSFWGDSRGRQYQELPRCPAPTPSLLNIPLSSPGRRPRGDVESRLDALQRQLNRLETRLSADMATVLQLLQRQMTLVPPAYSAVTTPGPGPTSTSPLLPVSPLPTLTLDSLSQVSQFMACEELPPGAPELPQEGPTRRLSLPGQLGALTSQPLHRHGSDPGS
EXPERIMENT_DESCRIPTION: hERG channel inhibition, whole cell patch clamp in HEK293 cells
Type: cell-based
SETUP_CONDITIONS: 10 μM
MEASURED_ENDPOINT: hERG @ 10 μM (%)

>  <COMPOUND>
Cc1ccc(COC(=O)N2CC[C@H](CNc3nccn4cnnc34)C(F)(F)C2)cc1 [Compound E1-1.2]

>  <MEASURE_UNIT>
%

>  <RESULT>
17

$$$$
>  <COMPOUND>
Cc1ccc(COC(=O)N2CC[C@H](CNc3cnccn3)C(F)(F)C2)cc1 [Compound E1-21.2]

>  <MEASURE_UNIT>
%

>  <RESULT>
27

$$$$
>  <COMPOUND>
Cc1ccc(COC(=O)N2CC[C@H](CNc3cncc4nncn34)C(F)(F)C2)cc1 [Compound E1-2.2]

>  <MEASURE_UNIT>
%

>  <RESULT>
32

$$$$
>  <COMPOUND>
Cc1ccc(COC(=O)N2CC[C@H](CNc3nc4ccccn4n3)C(F)(F)C2)cc1 [Compound E1-9.2]

>  <MEASURE_UNIT>
%

>  <RESULT>
38

$$$$
>  <COMPOUND>
Cc1ccc(COC(=O)N2CC[C@H](CNc3ncc4cn[nH]c4n3)C(F)(F)C2)cc1 [Compound E1-8.2]

>  <MEASURE_UNIT>
%

>  <RESULT>
57

$$$$
>  <COMPOUND>
O=C(OCc1ccc(F)cc1)N1CC[C@H](CNc2nccn3cnnc23)C(F)(F)C1 [Compound E1-1.4]

>  <MEASURE_UNIT>
%

>  <RESULT>
11

$$$$
>  <COMPOUND>
Cc1ccc(COC(=O)N2CC[C@@H](CNc3nccn4cnnc34)C(F)(F)C2)cc1 [Compound E2-1.2]

>  <MEASURE_UNIT>
%

>  <RESULT>
22

$$$$
>  <COMPOUND>
O=C(OCc1ccc(Cl)cc1)N1CC[C@H](CNc2nccn3cnnc23)C(F)(F)C1 [Compound E1-1.3]

>  <MEASURE_UNIT>
%

>  <RESULT>
19

$$$$
>  <COMPOUND>
Cc1ccc(COC(=O)N2CC[C@H](CNc3cnc(C)cn3)C(F)(F)C2)cc1 [Compound E1-21.26]

>  <MEASURE_UNIT>
%

>  <RESULT>
39

$$$$

Attribution: patent US10294230B2
